Please provide measured pEC50 for the entries that follow.
Test system: TLR2 induced IL-6 in peripheral blood mononuclear cells (PBMCs)
Experiment: PBMC TLR2 Induced IL-6 Assay
Assay type: cell-based
Settings: Homo sapiens, PBMC, 5 h, 10 μg/ml lipoteichoic acid for 5 hours, IL-6 by ELISA, values marked * are EC50, read-out: Cell EC50 (values marked *)
One number for each entry, as −log10 of the molar value.

Check out these entries, answers already filled in.
CC(=O)Nc1nc(Nc2cc(NC(C)C)c(C(=O)NC[C@@H](F)C(C)(C)O)cn2)ncc1C#N [Example 34] : 6.91
CC(C)(O)[C@H](F)CNC(=O)c1cnc(Nc2ncc(F)cc2F)cc1NC1CC1 [Example 89] : 6.31

I would be grateful if you could provide pEC50 for each of the following entries.
1. CC(C)(O)[C@H](F)CNC(=O)c1cnc(Nc2ncc(C#N)cc2F)cc1NC12CCC(O)(CC1)C2 [Example 133]
2. CCNc1cc(Nc2ncc(C#N)cc2F)ncc1C(=O)NC[C@@H](F)C(C)(C)O [Example 66]
3. CC(C)(O)[C@H](F)CNC(=O)c1cnc(Nc2ncc(F)cc2F)cc1NC1CCOCC1F (stereo partly drawn) [Example 108]
4. C[C@@H](CO)Nc1cc(Nc2ncc(C#N)cc2F)ncc1C(=O)NC[C@@H](F)C(C)(C)O [Example 91]
5. CS(=O)(=O)[C@H]1CC[C@H](NC(=O)c2cnc(Nc3ncc(C#N)cc3Cl)cc2NC2CC2)CC1 [Example 151]

[7.07, 7.20, 6.43, 6.75, 6.73]

// batch mode: one pEC50 value per listed entry
1. C[C@@H](CF)Nc1cc(Nc2ncc(C#N)cc2Cl)ncc1C(=O)NC[C@@H](F)C(C)(C)O [Example 39]
2. CC(C)Nc1cc(Nc2ncc(Cl)cc2Cl)ncc1C(=O)NC[C@@H](F)C(C)(C)O [Example 84]
3. [2H]C([2H])([2H])OC(C)(C)[C@H](F)CNC(=O)c1cnc(Nc2ncc(C#N)cc2F)cc1NC(C)C [Example 37]
4. CC(C)Nc1cc(Nc2ncc(C#N)c(NC(C)C)n2)ncc1C(=O)NC[C@@H](F)C(C)(C)O [Example 40]
5. CC(C)(O)[C@H](F)CNC(=O)c1cnc(Nc2ncc(C#N)cc2Cl)cc1Nc1ccc2ncsc2c1 [Example 153]

[7.00, 6.86, 7.02, 6.79, 6.36]

Give measured pEC50 for every item shown.
1. CC(C)(O)[C@H](F)CNC(=O)c1cnc(Nc2ncc(C#N)cc2Cl)cc1N[C@H]1CC[C@](C)(O)CC1 [Example 150]
2. COc1cccc(Nc2cc(Nc3ncc(C#N)cc3F)ncc2C(=O)NC[C@@H](F)C(C)(C)O)c1 [Example 130]
3. CC(C)(O)[C@H](F)CNC(=O)c1cnc(Nc2ncc(C#N)cc2F)cc1Nc1cccc(NS(C)(=O)=O)c1 [Example 134]

7.21
7.05
6.69
